- target_entity: Chk-1 kinase (Homo sapiens (Human))
- protocol_notes: Chk-1 Kinase Inhibiting Activity (33P-ATP filter assay, CHKtide substrate)
- Assay type: biochemical
- particulars: against Chk-1 kinase; read-out: IC50
pIC50: −log10 of the molar value. Where a name gives a salt, the structure may show the parent alone.
# pIC50 listing for each entry below

| compound | pIC50 |
| --- | --- |
| COc1cc(N2CCN(C(C)C)CC2)ccc1-c1cc(Nc2cnc(C#N)cn2)n[nH]1 [Example 81] | 9.82 |
| COc1cc(N2CCN(C)CC2)ccc1-c1cc(Nc2cnc(C#N)cn2)n[nH]1 [Example 22, hydrochloride] | 10.59 |
| COc1cc(C2CCNCC2)ccc1-c1cc(Nc2ccc(C#N)cn2)n[nH]1 [Example 50] | 7.70 |
| COc1cc(CNCc2ccc(F)cc2)ccc1-c1cc(Nc2cnc(C#N)cn2)n[nH]1 [Example 8] | 10.24 |
| COc1cc(CC2CCN(C(C)C)CC2)ccc1-c1cc(Nc2cnc(C#N)cn2)n[nH]1 [Example 144] | 10.59 |
| COc1cc(CN2CCOCC2)ccc1-c1cc(Nc2cnc(C#N)cn2)n[nH]1 [Example 102] | 9.80 |

* * *

- target_entity: Chk-1 kinase (Homo sapiens (Human))
- protocol_notes: Chk-1 Kinase Inhibiting Activity (33P-ATP filter assay, CHKtide substrate)
- Assay type: biochemical
- particulars: against Chk-1 kinase; read-out: IC50
# IC50 listing for each entry below
measured_property: IC50

| compound | result |
| --- | --- |
| COC(=O)c1cnc(Nc2cc(-c3ccc(C4CCNCC4)cc3OC)[nH]n2)cn1 [Example 71] | > 100 nM |
| COc1cc(N2CCNCC2)cc(OC)c1-c1cc(Nc2cnc(C#N)cn2)n[nH]1 [Example 121] | 0.15 nM |
| COc1cc(N2CCN(C(C)C)[C@H](C)C2)ccc1-c1cc(Nc2cnc(C#N)cn2)n[nH]1 [Example 133] | 0.12 nM |

* * *

- target_entity: Chk-1 kinase (Homo sapiens (Human), UniProt O14757)
- Sequence (O14757 whole entry): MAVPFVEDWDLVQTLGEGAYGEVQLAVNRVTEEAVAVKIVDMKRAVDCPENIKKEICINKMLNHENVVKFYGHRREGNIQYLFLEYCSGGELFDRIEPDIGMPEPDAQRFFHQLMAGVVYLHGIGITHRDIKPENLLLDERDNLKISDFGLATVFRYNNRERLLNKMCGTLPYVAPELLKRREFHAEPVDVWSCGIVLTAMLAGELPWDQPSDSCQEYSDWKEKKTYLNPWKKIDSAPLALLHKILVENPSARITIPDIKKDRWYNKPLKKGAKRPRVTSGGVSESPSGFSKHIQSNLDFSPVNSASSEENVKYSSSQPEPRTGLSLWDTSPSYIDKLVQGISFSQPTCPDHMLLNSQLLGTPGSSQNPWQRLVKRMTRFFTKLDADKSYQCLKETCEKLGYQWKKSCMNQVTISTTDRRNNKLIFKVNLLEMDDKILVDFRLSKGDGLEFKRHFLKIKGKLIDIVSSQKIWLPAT
- protocol_notes: Chk-1 Kinase Inhibiting Activity (33P-ATP filter assay, CHKtide substrate)
- Type: biochemical
- particulars: against Chk-1 kinase; read-out: IC50
- Description: Chk-1 Kinase Inhibiting Activity The compounds of the invention were tested for activity against Chk-1 kinase using the materials and protocols set out below. Base Reaction buffer: 20 mM Hepes (pH 7.5), 10 mM MgCl2, 1 mM EGTA, 0.02% Brij35, 0.02 mg/ml BSA, 0.1 mM Na3VO4, 2 mM DTT, 1% DMSO […] From the results obtained by following the above protocol, the IC50 values against Chk-1 kinase of each of the compounds of Examples 1-153 were determined and these are shown in Table 3.
Where a name gives a salt, the structure may show the parent alone.
# IC50 listing for each entry below

| compound | units_of_measure | comparator | IC50 |
| --- | --- | --- | --- |
| COc1cc(N2CCN[C@H](C)C2)ccc1-c1cc(Nc2cnc(C#N)cn2)n[nH]1 | nM | = | 0.016 |
| COc1cc(C2CN(C)C2)ccc1-c1cc(Nc2cnc(C#N)cn2)n[nH]1 | nM | = | 0.022 |
| CCN1CCC(Cc2ccc(-c3cc(Nc4cnc(C#N)cn4)n[nH]3)c(OC)c2)CC1 [Example 143, hydrochloride] | nM | = | 0.021 |
| CCN1CCC[C@@H]1COc1ccc(-c2cc(Nc3cnc(C#N)cn3)n[nH]2)c(OC)c1 | nM | = | 0.056 |
| CC(C)Oc1cc(C2CCNCC2)ccc1-c1cc(Nc2cnc(C#N)cn2)n[nH]1 | nM | = | 3.1 |
| CN1CCC(c2ccc(-c3cc(Nc4cnc(C#N)cn4)n[nH]3)cc2)CC1 | nM | = | 3.6 |
| COc1cc(C2CCN(C)CC2)ccc1-c1cc(Nc2ccc(C#N)nc2)n[nH]1.Cl [Example 24, hydrochloride] | nM | = | 0.24 |
| COc1cc(C2(F)CN(C)C2)ccc1-c1cc(Nc2cnc(C#N)cn2)n[nH]1 | nM | = | 0.14 |
| COc1c(-c2cc(Nc3cnc(C#N)cn3)n[nH]2)ccc(C2CCN(C)CC2)c1Cl | nM | = | 7.9 |
| COc1cc(C2CCNCC2)ccc1-c1cc(Nc2cnc(C(=O)O)cn2)n[nH]1 | nM | > | 100 |
| COc1cc(CN2CCCC2)ccc1-c1cc(Nc2cnc(C#N)cn2)n[nH]1 | nM | = | 0.055 |
| COc1cc(N2CCOCC2)ccc1-c1cc(Nc2cnc(C#N)cn2)n[nH]1 | nM | = | 0.4 |
| COc1cc(OCC2CCCN2)ccc1-c1cc(Nc2cnc(C#N)cn2)n[nH]1 (centres unmarked) | nM | = | 0.14 |
| COc1cc(OC[C@H]2CCCN2C(C)C)ccc1-c1cc(Nc2cnc(C#N)cn2)n[nH]1 | nM | = | 0.044 |
| COc1cc(OC2CCN(C)CC2)ccc1-c1cc(Nc2cnc(C#N)cn2)n[nH]1 [Example 28, hydrochloride] | nM | = | 0.13 |
| COc1cc(COC2CCN(C)CC2)ccc1-c1cc(Nc2cnc(C#N)cn2)n[nH]1 | nM | = | 0.27 |
| COc1cc(CN[C@H]2CCOC2)ccc1-c1cc(Nc2cnc(C#N)cn2)n[nH]1 | nM | = | 0.11 |
| COc1cc(OC[C@@H]2CCCN2C)ccc1-c1cc(Nc2cnc(C#N)cn2)n[nH]1 [Example 104, hydrochloride] | nM | = | 0.12 |
| COc1cc(COC2CCN(C(C)C)CC2)ccc1-c1cc(Nc2cnc(C#N)cn2)n[nH]1 | nM | = | 0.24 |
| CCN1CC[C@H](OCc2ccc(-c3cc(Nc4cnc(C#N)cn4)n[nH]3)c(OC)c2)C1 | nM | = | 0.041 |

Reference source: patent US10010547B2
